System: Mus musculus
TEST SUMMARY: Antidiabetic activity in nicotinamide and streptozotocin induced hyperglycemic mouse model assessed as reduction in triglyceride level at 100 mg/kg, IG administered as single dose and measured on day 1 (reference value: 88 +/- 6 mg/dl)
Type: functional
ATTRIBUTE MEASURED: Activity (mg/dL)

MOLECULE	ATTRIBUTE MEASURED	ASSAY RESULT
O=C1NC(=O)/C(=C/c2ccc(OCc3ccc(Cl)cc3)cc2)S1	Activity	75
Cc1ccc(COc2ccc(/C=C3\SC(O)=NC3=O)cc2)cc1	Activity	88
O=C1N=C(O)S/C1=C\c1ccc(OCc2ccccc2)cc1	Activity	70
CC(C)OC(=O)C(C)(C)Oc1ccc(C(=O)c2ccc(Cl)cc2)cc1 [FENOFIBRATE]	Activity	65
